Would you kindly list CC50 at 1 h for each of these compounds?
procedure.summary: Cytotoxicity, MTS viability assay
Format: cell-based, human
condition.description: human, HepG2 cells (ATCC HB-8065); 1 h exposure in serum-free medium, MTS
Kindly answer with a numeric value in µM, unit omitted.

Fill in CC50 at 1 h for record `C1=C(c2ccc(-c3cn(-c4ccc(C5=CCNCC5)cc4)nn3)cc2)CCNC1` 111

Item `c1cc(-c2ccc(N3CCNCC3)cc2)cc(-c2ccc(N3CCNCC3)cc2)n1` : provide CC50 at 1 h 447

Tell me its CC50 at 1 h given `Cc1cc(C#CCNC(=N)N)ccc1-c1nnc(-c2ccc(C#CCNC(=N)N)cc2)o1` as the entry. 257

Entry `N=C(N)N1CC=C(c2ccc(-c3nnc(-c4ccc(C5=CCN(C(=N)N)CC5)cc4)o3)cc2)CC1` needs its CC50 at 1 h filled in; supply it. 151

====

For each entry below, report its log10 of CC50 at 1 h value.
procedure.summary: Cytotoxicity, MTS viability assay
Assay type: cell-based, mouse
condition.description: mouse, 3T3 fibroblasts (ATCC CRL-1658); 1 h exposure in serum-free medium, MTS
All values: base-10 log of CC50 at 1 h in µM.

Give reported log10 of CC50 at 1 h value for `Cc1cc(C#CCNC(=N)N)ccc1-c1nnc(-c2ccc(C#CCNC(=N)N)cc2)o1` 2.32

Give the reported log10 of CC50 at 1 h for this molecule. `Cc1c(-c2ccc(N3CCNCC3)cc2)ncnc1-c1ccc(N2CCNCC2)cc1` 2.95

Give a short answer stating reported log10 of CC50 at 1 h for `N=C(N)N1CC=C(c2ccc(-c3nnc(-c4ccc(C5=CCN(C(=N)N)CC5)cc4)o3)cc2)CC1` . 2.09

Please report log10 of CC50 at 1 h for the following molecule: `C1=C(c2ccc(-c3cn(-c4ccc(C5=CCNCC5)cc4)nn3)cc2)CCNC1` 1.78

Tell me its log10 of CC50 at 1 h given `c1cc(-c2ccc(N3CCNCC3)cc2)cc(-c2ccc(N3CCNCC3)cc2)n1` as the entry. 2.30

====

target.of.assay: MRGPRX2 (Homo sapiens, UniProt Q96LB1)
Construct: HA (hemagglutinin)
Sequence (Q96LB1 whole entry): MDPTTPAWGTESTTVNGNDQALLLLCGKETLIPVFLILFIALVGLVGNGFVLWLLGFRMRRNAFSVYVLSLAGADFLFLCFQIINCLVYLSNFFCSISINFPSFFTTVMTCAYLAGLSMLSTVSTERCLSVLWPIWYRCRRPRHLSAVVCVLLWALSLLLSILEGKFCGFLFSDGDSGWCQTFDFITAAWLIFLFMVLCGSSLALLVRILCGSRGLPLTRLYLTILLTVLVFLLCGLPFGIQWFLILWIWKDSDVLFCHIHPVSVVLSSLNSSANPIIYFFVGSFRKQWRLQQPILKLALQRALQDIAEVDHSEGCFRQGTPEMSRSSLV
procedure.summary: Degranulation (β-hexosaminidase release) in RBL-2H3 cells expressing MRGPRX2
condition.description: RBL-2H3 cells stably expressing MRGPRX2, 30 min
Provide the reported EC50 of each item.
Reply with just the number (in nM).

Return EC50 (reported value) for this compound: `Cc1c(-c2ccc(N3CCNCC3)cc2)ncnc1-c1ccc(N2CCNCC2)cc1` 400

Given the compound `C1=C(c2ccc(-c3cn(-c4ccc(C5=CCNCC5)cc4)nn3)cc2)CCNC1` , write its reported EC50. 1800

Give the measured EC50 for `Cc1cc(C#CCNC(=N)N)ccc1-c1nnc(-c2ccc(C#CCNC(=N)N)cc2)o1` 800

Assign EC50 to the following record: `N=C(N)N1CC=C(c2ccc(-c3nnc(-c4ccc(C5=CCN(C(=N)N)CC5)cc4)o3)cc2)CC1` 3000

Give recorded EC50. `c1cc(-c2ccc(N3CCNCC3)cc2)cc(-c2ccc(N3CCNCC3)cc2)n1` 380

====

Tested on: Aspergillus fumigatus (ATCC MYA-3626)
procedure.summary: Fungus MIC assay (CLSI M38-A2)
Format: cell-based
condition.description: Aspergillus fumigatus; RPMI/MOPS pH 7.0, 35 °C, 48 h
observable: MIC

Give MIC for `Cc1c(-c2ccc(N3CCNCC3)cc2)ncnc1-c1ccc(N2CCNCC2)cc1` > 100 µg/mL

Please look at this compound and report its MIC: `Cc1cc(C#CCNC(=N)N)ccc1-c1nnc(-c2ccc(C#CCNC(=N)N)cc2)o1` 12.5 to 50 µg/mL

For the compound `C1=C(c2ccc(-c3cn(-c4ccc(C5=CCNCC5)cc4)nn3)cc2)CCNC1` , give its reported MIC. > 100 µg/mL

Report measured MIC; entry is `N=C(N)N1CC=C(c2ccc(-c3nnc(-c4ccc(C5=CCN(C(=N)N)CC5)cc4)o3)cc2)CC1` 0.39 µg/mL

Look up MIC of `c1cc(-c2ccc(N3CCNCC3)cc2)cc(-c2ccc(N3CCNCC3)cc2)n1` and report it. > 100 µg/mL
